The origin of these recorded values is patent US6784167B2.

The entries below come with measured melting point values attached.

CN1C(=O)C[C@H](c2ccccc2)[C@@H]1[C@H](O)CCc1ccc(F)cc1 (relative stereo) has a reported melting point of 122 to 124 °C

CN1C(=O)C[C@H](c2ccccc2)[C@@H]1[C@H](O)Cc1cccc(Cl)c1 (relative stereo) has a reported melting point of 50 to 52 °C

CN1C(=O)C[C@H](c2ccccc2)[C@@H]1[C@H](F)c1ccc(-c2ccc(F)cc2)s1 has a reported melting point of 121 to 123 °C

CN1C(=O)C[C@H](c2ccccc2F)[C@@H]1[C@H](O)c1ccc(-c2cccnc2)s1.Cl has a reported melting point of 180 to 182 °C

CN1C(=O)CC(c2ccccc2)C1C(O)c1ccc(-c2ccc(O)cc2)s1 (centres unmarked) has a reported melting point of 184 to 186 °C (dec.)

CN1C(=O)CC(c2ccccc2)C1C(O)c1ccc(-c2ccc(C(=O)O)cc2)s1 (centres unmarked) has a reported melting point of 232 °C (dec.)

CN1C(=O)C[C@H](c2ccccc2)[C@@H]1[C@H](O)c1ccc(-c2ccc(F)cc2)s1 (relative stereo) has a reported melting point of 110 °C (dec.)

CN1C(=O)CC(c2ccccc2)C1C(O)C#Cc1ccc(F)cc1 (centres unmarked) has a reported melting point of 154 to 156 °C

====

Observed property: melting point

Completed entries (count: 3):
{"Compound": "CN1C(=O)CC(c2ccccc2)C1C(O)c1ccc(-c2ccc(C#N)cc2)s1 (stereo not drawn)", "Test value": "146 °C"}
{"Compound": "Cc1ccc(C(O)C2C(c3ccccc3)CC(=O)N2C)cc1 (stereo not drawn)", "Test value": "129 to 131 °C"}
{"Compound": "CN1C(=O)CC(c2ccccc2)C1C(O)c1ccc(S(=O)(=O)c2ccc(F)cc2)s1 (stereo not drawn)", "Test value": "192 °C"}

CN1C(=O)CC(c2ccccc2)C1C(O)c1ccc(S(=O)(=O)c2ccc(Cl)cc2)s1 (racemic) has a reported melting point of 207 to 208 °C

CN1C(=O)CC(c2ccccc2)C1C(O)c1ccc(Cc2ccc(F)cc2)s1 (stereo not drawn) has a reported melting point of 155 to 157 °C

CN1C(=O)CC(c2ccccc2)C1C(O)c1ccc(S(=O)(=O)N2CCOCC2)s1 (stereo not drawn) has a reported melting point of 214 to 218 °C

====

Observed property: melting point

{"Molecule": "CN1C(=O)CC(c2ccccc2)C1C(O)c1ccc(Sc2ccc(Cl)cc2)s1 (stereo not drawn) [Example 60]", "Observed property": "melting point", "Test value": "174 to 176 °C"}
{"Molecule": "CO[C@H](c1cccs1)[C@H]1[C@@H](c2ccccc2)CC(=O)N1C (relative stereo) [Example 12]", "Observed property": "melting point", "Test value": "101 to 102 °C"}

Cc1cccc([C@@H](O)[C@H]2[C@@H](c3ccccc3)CC(=O)N2C)c1 (relative stereo) [Example 7] has a reported melting point of 163 to 165 °C

CN1C(=O)C[C@H](c2ccccc2)[C@@H]1[C@H](O)c1ccc(-c2ccccc2)s1 [Example 145] has a reported melting point of 216 °C (dec.)

CO[C@H](c1cccc(Cl)c1)[C@H]1[C@@H](c2ccccc2)CC(=O)N1C [Example 142] has a reported melting point of 95 to 96 °C

CN1C(=O)C[C@H](c2ccccc2)[C@@H]1[C@H](OCc1ccccc1)c1cccs1 [Example 140] has a reported melting point of 129 to 130 °C

CSc1ccc(-c2ccc([C@@H](O)[C@H]3[C@@H](c4ccccc4)CC(=O)N3C)s2)cc1 (racemic) [Example 69] has a reported melting point of 187 °C

CN1C(=O)C[C@H](c2ccccc2)[C@@H]1[C@H](O)/C=C/c1ccc(F)cc1 (relative stereo) [Example 15] has a reported melting point of 189 to 191 °C

CN1C(=O)CC(c2ccccc2)C1C(O)c1ccc(-c2ccc(F)cc2)o1 (stereo not drawn) [Example 114] has a reported melting point of 168 °C

CN1C(=O)CC(c2ccccc2)C1C(O)c1ccc(-c2cccc(N)c2)s1 (stereo not drawn) [Example 67] has a reported melting point of 190 °C

CN1C(=O)C[C@H](c2ccc(N)cc2)[C@@H]1[C@H](O)c1ccc(-c2ccccc2)s1 (relative stereo) [Example 17] has a reported melting point of 221 to 222 °C

CN1C(=O)C[C@H](c2ccccc2)[C@@H]1[C@H](O)c1csc2ccccc12 (racemic) [Example 54] has a reported melting point of > 210 °C
